Ref: patent US20250188084A1

# targetOrSystem: CDK9 (Homo sapiens)
# Construct: NCIH211 cells with endogenously tagged N-terminal CDK9-HiBit; endogenous in cells; host or cells: NCIH211 cells (endogenous CDK9 locus tagged with HiBit)
# Sequence (P50750 whole entry): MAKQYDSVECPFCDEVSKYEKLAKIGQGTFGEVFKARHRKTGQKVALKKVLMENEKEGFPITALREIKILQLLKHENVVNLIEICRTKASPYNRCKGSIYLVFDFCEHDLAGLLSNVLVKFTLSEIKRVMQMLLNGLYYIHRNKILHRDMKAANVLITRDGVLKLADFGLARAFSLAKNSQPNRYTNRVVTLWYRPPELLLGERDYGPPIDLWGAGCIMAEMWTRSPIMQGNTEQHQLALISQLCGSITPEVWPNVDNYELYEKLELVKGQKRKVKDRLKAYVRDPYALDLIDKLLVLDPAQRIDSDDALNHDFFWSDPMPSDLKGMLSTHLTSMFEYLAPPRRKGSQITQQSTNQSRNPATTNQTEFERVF
# Sequence (O60563 whole entry partner): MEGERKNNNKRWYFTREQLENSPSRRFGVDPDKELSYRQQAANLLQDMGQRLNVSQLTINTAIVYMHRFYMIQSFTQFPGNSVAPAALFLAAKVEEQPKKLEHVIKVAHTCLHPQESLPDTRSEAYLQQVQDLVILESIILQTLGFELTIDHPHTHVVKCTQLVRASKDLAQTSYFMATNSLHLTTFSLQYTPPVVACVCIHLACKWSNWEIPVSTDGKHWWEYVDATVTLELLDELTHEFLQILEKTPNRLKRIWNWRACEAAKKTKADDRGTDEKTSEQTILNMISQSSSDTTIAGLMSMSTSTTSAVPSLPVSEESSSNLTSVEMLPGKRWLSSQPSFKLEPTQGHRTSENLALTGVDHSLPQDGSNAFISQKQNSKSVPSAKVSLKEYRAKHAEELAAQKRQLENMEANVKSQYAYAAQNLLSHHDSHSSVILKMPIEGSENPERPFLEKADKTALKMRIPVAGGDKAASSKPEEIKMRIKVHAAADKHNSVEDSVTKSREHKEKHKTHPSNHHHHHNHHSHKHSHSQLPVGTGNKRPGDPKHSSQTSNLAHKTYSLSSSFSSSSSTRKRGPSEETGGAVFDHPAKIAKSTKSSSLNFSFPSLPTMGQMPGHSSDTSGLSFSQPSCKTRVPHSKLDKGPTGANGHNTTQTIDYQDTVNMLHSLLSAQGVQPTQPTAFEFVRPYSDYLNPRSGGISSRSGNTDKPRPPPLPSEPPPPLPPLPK
# procedureText: CDK9 degradation by HiBit assay, NCIH211 cells
# Assay type: cell-based
# statedConditions: NCIH211 cells with endogenously tagged N-terminal CDK9-HiBit, 24 hours incubation; read-out: HiBit-NCIH211.2 DC50
# key: entry, value: DC50

Worked cases, answers included:
CCC(CC)c1cc(N[C@H]2CC[C@H](NCC(=O)NCc3cn(CCOCCOCCOCCOCC(=O)N[C@H](C(=O)N4C[C@H](O)C[C@H]4C(=O)NCc4ccc(-c5scnc5C)cc4)C(C)(C)C)nn3)C2)n2nccc2n1 [Compound 28.0] ... > 10 µM
CCC(CC)c1cc(N[C@H]2CC[C@H](NCc3cn(CCOCCOCCOc4cc(-c5scnc5C)ccc4CNC(=O)[C@@H]4C[C@@H](O)CN4C(=O)[C@H](C(C)C)N4Cc5ccccc5C4=O)nn3)C2)n2nccc2n1 [Compound 38.0] ... > 10 µM

Exercise: Quote DC50 reported for CCC(CC)c1cc(N[C@H]2CC[C@H](NCC(=O)N3CCN(CCCNc4cccc5c4C(=O)N(C4CCC(=O)NC4=O)C5=O)CC3)C2)n2ncc(Cl)c2n1 (stereo partly drawn) [Compound 50.0] please.
Key: < 0.1 µM
